- Tested On: Phosphatidylinositol 4,5-bisphosphate 3-kinase catalytic subunit delta isoform (Homo sapiens, UniProt O00329)
- Sequence (O00329 whole entry, canonical isoform): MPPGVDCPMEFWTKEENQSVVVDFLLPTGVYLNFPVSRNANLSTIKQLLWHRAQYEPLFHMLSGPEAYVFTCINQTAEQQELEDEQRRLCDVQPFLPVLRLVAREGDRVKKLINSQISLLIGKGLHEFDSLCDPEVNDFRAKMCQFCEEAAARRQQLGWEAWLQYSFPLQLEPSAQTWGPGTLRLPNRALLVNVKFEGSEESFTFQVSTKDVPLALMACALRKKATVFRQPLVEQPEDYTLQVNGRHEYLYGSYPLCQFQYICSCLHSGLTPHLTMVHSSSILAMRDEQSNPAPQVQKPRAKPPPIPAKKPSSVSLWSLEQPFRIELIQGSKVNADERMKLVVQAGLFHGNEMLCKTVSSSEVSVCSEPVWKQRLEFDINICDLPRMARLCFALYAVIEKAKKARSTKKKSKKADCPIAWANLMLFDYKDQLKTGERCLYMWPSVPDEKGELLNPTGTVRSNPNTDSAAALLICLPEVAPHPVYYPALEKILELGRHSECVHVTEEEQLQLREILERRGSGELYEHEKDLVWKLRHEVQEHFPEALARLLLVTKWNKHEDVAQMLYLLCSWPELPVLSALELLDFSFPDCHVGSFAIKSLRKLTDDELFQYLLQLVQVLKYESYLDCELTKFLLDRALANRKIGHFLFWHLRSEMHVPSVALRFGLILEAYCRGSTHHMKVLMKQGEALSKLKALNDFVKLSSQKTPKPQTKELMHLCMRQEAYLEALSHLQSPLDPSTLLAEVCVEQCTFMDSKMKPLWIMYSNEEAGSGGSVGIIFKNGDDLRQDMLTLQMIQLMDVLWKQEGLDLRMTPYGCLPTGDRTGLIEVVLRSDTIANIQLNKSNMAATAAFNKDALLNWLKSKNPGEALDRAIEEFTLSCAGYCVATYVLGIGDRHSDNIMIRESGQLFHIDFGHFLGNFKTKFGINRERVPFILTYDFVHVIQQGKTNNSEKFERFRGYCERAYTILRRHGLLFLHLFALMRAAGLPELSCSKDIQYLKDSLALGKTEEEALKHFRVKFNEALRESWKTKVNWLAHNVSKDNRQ
- Protocol Notes: Inhibition of PI3Kdelta
Measurement Type: IC50 (µM)

- Compound: "CC1(C)CC(=O)c2sc(N3CCOC[C@H]3c3ccccc3)nc2C1"
  Measurement Type: "IC50"
  Cmp: ">"
  Measured Value: 50
- Compound: "CC1(C)CC(=O)c2sc(N3CCOC[C@H]3Cc3ccccc3)nc2C1"
  Measurement Type: "IC50"
  Cmp: ">"
  Measured Value: 50
- Compound: "CCCC1CC(=O)c2sc(N3CCOCC3)nc2C1 (racemic)"
  Measurement Type: "IC50"
  Cmp: "="
  Measured Value: 26.2
- Compound: "COCCNc1nc2c(s1)C(=O)CC(C)(C)C2"
  Measurement Type: "IC50"
  Cmp: ">"
  Measured Value: 40
- Compound: "CC1(C)CC(=O)c2sc(-c3ccncc3)nc2C1"
  Measurement Type: "IC50"
  Cmp: "="
  Measured Value: 19
- Compound: "CC1(C)CC(=O)c2sc(N3CCOC[C@@H]3Cc3csc4ccccc34)nc2C1"
  Measurement Type: "IC50"
  Cmp: "="
  Measured Value: 0.06
- Compound: "CC1(C)CC(=O)c2sc(N3CCCCC3)nc2C1"
  Measurement Type: "IC50"
  Cmp: ">"
  Measured Value: 40
- Compound: "CC1(C)CC(=O)c2sc(N3CCOC[C@@H]3Cc3ccccc3)nc2C1"
  Measurement Type: "IC50"
  Cmp: "="
  Measured Value: 2.12
- Compound: "CC1(C)CC(=O)c2sc(N3CCOC[C@@H]3c3ccccc3)nc2C1"
  Measurement Type: "IC50"
  Cmp: ">"
  Measured Value: 50
- Compound: "CC1(C)CC(=O)c2sc(N3CCOC[C@@H]3Cc3c[nH]c4ccccc34)nc2C1"
  Measurement Type: "IC50"
  Cmp: "="
  Measured Value: 0.035
- Compound: "O=C1CCCc2nc(N3CCOCC3)sc21"
  Measurement Type: "IC50"
  Cmp: "="
  Measured Value: 3.89
- Compound: "CC1(C)CC(=O)c2sc(N3CCOCC3Cc3ccc4ccccc4c3)nc2C1 (stereo not drawn)"
  Measurement Type: "IC50"
  Cmp: "="
  Measured Value: 1.39
- Compound: "CC1(C)CC(=O)c2sc(N3CCOCC3Cc3c[nH]c4ncccc34)nc2C1 (stereo not drawn)"
  Measurement Type: "IC50"
  Cmp: "="
  Measured Value: 0.074

====

- Tested On: Phosphatidylinositol 4,5-bisphosphate 3-kinase catalytic subunit alpha isoform (Homo sapiens)
- Sequence (P42336 whole entry, canonical isoform): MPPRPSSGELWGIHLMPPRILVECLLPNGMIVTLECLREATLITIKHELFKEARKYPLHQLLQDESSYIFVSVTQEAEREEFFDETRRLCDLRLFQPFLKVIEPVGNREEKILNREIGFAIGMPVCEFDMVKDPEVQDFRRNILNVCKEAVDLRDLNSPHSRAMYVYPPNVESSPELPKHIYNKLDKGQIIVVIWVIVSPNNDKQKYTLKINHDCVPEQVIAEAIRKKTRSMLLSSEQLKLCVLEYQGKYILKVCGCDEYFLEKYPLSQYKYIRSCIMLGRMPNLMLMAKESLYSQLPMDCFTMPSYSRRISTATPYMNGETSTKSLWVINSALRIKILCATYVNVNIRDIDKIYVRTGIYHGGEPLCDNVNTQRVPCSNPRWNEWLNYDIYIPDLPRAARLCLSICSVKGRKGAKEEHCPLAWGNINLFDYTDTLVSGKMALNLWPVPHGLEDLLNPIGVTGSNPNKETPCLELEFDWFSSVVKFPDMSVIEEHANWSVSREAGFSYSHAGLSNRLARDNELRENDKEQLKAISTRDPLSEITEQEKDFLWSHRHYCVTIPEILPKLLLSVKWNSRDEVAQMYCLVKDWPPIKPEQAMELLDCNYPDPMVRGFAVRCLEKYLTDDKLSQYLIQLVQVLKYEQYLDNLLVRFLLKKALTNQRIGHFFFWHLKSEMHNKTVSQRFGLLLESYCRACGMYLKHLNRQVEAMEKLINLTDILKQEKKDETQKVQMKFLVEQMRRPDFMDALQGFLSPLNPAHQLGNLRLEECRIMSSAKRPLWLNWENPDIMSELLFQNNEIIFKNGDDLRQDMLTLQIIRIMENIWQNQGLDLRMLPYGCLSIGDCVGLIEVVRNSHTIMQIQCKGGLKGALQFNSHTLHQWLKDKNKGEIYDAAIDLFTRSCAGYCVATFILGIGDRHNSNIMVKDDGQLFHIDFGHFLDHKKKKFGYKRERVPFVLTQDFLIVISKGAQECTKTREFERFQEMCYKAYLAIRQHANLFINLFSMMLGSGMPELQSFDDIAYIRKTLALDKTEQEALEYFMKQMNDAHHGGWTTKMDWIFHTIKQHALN
- Protocol Notes: Inhibition of PI3Kalpha

- Molecule: "CC1(C)CC(=O)c2sc(N3CCOC[C@@H]3Cc3c[nH]c4ccccc34)nc2C1"
  IC50 (nM): 51
- Molecule: "O=C1CC2(CCCCC2)Cc2nc(N3CCOCC3)sc21"
  IC50 (nM): 1900
- Molecule: "CC1(C)CC(=O)c2sc(N3CCOCC3Cc3c[nH]c4ncccc34)nc2C1 (stereo not drawn)"
  IC50 (nM): 107
